molecular target: Histone deacetylase 4 (Homo sapiens, UniProt P56524); experiment: Inhibition of human HDAC4 using RHKKAc as substrate by fluorescence assay
Sequence (P56524 whole entry): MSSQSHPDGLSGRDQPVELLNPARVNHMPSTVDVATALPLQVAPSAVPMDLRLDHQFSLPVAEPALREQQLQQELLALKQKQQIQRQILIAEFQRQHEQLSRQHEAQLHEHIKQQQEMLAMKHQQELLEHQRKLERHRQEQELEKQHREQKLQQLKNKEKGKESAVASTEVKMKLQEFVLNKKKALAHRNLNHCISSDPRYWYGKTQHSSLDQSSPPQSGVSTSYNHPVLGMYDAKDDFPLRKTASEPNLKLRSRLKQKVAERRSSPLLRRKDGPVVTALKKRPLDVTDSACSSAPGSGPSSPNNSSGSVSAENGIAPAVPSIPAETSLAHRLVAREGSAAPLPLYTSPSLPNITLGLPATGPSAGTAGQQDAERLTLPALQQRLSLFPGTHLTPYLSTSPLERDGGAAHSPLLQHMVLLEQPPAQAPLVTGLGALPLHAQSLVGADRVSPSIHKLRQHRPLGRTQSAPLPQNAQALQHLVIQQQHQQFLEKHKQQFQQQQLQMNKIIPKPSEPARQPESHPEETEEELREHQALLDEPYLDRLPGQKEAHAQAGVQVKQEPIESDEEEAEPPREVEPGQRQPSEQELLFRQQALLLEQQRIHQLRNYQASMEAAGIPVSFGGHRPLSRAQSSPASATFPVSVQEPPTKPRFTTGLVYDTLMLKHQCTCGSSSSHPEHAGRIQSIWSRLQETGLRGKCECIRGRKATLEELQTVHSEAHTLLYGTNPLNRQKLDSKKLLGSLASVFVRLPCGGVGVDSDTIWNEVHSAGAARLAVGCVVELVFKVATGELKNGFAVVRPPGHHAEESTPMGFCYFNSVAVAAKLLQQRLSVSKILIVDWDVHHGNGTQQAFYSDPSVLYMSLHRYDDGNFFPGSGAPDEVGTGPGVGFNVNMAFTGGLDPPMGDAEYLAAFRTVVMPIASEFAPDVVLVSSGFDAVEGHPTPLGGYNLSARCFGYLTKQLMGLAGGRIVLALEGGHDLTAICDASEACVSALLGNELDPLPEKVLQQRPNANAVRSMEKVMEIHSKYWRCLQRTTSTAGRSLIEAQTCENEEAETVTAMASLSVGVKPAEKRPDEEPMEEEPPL
attribute-measured: IC50
# do not omit the unit; it follows the number

Suppose we examine the compound CN1C(=O)C2CN(Cc3c2c2ccccc2n3Cc2ccc(C(=O)NO)cc2)C1=O (stereo unspecified) ; what IC50 value has been reported?
3.82 µM

* * *

target: Histone deacetylase 1 (Homo sapiens); assay: Inhibition of human HDAC1 using RHKKAc as substrate by fluorescence assay
Sequence (Q13547 whole entry): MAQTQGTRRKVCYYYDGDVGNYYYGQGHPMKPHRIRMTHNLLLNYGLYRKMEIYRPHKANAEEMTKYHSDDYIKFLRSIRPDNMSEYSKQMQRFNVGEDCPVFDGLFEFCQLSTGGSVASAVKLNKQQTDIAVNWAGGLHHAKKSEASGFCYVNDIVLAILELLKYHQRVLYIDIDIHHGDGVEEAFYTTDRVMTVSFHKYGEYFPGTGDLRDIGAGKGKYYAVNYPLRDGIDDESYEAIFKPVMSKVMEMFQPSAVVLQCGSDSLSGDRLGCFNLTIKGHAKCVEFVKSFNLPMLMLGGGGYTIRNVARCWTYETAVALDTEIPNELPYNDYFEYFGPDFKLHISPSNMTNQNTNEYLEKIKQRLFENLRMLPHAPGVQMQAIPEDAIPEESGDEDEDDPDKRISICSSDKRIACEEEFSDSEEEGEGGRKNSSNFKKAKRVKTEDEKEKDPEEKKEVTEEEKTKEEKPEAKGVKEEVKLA
attribute-measured: pIC50
Numbers only, as −log10 of the molar value.

I have this compound here, CN1C(=O)C2CN(Cc3c2c2ccccc2n3Cc2ccc(C(=O)NO)cc2)C1=O (stereo unspecified) , and I need its recorded pIC50.
5.44
